- ASSAYED_SYSTEM: UniProtKB P51679
- Sequence (P51679 whole entry): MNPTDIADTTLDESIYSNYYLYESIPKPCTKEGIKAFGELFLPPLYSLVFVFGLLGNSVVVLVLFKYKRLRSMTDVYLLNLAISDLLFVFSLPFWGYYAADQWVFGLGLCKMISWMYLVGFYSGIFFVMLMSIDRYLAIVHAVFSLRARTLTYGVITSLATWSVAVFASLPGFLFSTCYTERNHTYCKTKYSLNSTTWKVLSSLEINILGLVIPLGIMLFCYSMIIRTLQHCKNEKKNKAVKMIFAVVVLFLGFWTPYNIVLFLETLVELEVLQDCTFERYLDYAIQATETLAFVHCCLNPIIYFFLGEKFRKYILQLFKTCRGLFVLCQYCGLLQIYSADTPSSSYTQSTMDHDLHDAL
- TEST: PathHunter β-arrestin assay
- Assay type: cell-based
- CONDITION_CONTEXT: antagonist mode vs EC80 of control agonist, 10-point curve
MEASURED_QUANTITY: IC50 (µM)
Give the quantity in µM, number only.

Please report the recorded IC50 for `COC(=O)[C@@H](NC(=O)c1nn(Cc2ccc(F)cc2)c2ccccc12)C(C)C` .
11.5

---

- ASSAYED_SYSTEM: HCRTR2 (Homo sapiens)
- Sequence (O43614 whole entry): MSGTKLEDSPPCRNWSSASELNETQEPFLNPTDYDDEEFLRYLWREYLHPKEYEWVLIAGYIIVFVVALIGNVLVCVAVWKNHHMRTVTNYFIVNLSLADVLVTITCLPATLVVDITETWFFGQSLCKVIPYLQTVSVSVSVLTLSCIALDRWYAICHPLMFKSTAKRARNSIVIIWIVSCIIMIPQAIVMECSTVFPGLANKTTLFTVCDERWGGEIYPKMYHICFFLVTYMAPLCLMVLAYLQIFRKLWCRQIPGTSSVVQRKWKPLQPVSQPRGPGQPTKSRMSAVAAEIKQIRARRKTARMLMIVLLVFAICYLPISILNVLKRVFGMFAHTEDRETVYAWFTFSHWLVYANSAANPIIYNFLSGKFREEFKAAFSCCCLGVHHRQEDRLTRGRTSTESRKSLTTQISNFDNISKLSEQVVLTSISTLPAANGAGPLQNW
- TEST: PathHunter β-arrestin assay
- Format: cell-based
- CONDITION_CONTEXT: follow-up assays, control antagonist
MEASURED_QUANTITY: pIC50
// field semantics: pIC50 = negative decimal log of concentration (mol/L)

Under HCRTR2 (Homo sapiens): pIC50 value of `Cc1cc(NC(=O)Nc2ccc(N(C)C)cc2)c2cc(F)cc(F)c2n1` ?
4.94

---

- ASSAYED_SYSTEM: HRH2 (Homo sapiens, UniProt P25021)
- Sequence (P25021 whole entry): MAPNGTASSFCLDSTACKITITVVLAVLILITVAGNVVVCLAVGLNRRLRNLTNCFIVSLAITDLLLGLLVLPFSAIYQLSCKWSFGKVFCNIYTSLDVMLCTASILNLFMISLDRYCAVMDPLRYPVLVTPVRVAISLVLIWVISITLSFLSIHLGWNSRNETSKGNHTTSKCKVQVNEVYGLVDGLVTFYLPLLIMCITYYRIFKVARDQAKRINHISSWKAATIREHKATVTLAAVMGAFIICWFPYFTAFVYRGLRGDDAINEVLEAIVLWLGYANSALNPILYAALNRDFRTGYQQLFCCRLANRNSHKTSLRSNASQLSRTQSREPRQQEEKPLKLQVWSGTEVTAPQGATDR
- TEST: PathHunter β-arrestin assay
- CONDITION_CONTEXT: antagonist mode vs EC80 of control agonist, 10-point curve
MEASURED_QUANTITY: pIC50
In plain terms, pIC50 is the concentration in mol/L turned into minus its base-10 logarithm.

Given the compound `COC(=O)[C@@H](NC(=O)c1nn(Cc2ccc(F)cc2)c2ccccc12)C(C)C` , what is its reported pIC50?
4.88

---

- ASSAYED_SYSTEM: ADRA2C (Homo sapiens, UniProt P18825)
- Sequence (P18825 1-462): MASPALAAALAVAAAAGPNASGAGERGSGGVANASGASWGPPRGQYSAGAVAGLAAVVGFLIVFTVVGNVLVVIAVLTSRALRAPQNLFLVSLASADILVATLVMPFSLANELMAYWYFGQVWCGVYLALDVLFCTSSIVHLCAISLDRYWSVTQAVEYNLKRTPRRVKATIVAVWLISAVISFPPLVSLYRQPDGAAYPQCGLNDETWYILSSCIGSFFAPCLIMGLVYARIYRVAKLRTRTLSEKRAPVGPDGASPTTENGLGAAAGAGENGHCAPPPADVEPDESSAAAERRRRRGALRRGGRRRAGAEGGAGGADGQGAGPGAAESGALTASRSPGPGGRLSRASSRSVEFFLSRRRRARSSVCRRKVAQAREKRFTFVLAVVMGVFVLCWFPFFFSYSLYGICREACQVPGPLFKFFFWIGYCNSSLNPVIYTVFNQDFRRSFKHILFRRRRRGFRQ
- TEST: PathHunter β-arrestin assay
- CONDITION_CONTEXT: antagonist mode vs EC80 of control agonist, 10-point curve
MEASURED_QUANTITY: pIC50
Would you please state pIC50, meaning minus log10 of the concentration in mol/L, as a bare number?

API: value(readout=pIC50, system=ADRA2C (Homo sapiens, UniProt P18825)) for record `COC(=O)[C@@H](NC(=O)c1nn(Cc2ccc(F)cc2)c2ccccc12)C(C)C`
5.14

---

- ASSAYED_SYSTEM: ADORA3 (Homo sapiens)
- Construct: host or cells: CHO
- Sequence (P0DMS8 1-318): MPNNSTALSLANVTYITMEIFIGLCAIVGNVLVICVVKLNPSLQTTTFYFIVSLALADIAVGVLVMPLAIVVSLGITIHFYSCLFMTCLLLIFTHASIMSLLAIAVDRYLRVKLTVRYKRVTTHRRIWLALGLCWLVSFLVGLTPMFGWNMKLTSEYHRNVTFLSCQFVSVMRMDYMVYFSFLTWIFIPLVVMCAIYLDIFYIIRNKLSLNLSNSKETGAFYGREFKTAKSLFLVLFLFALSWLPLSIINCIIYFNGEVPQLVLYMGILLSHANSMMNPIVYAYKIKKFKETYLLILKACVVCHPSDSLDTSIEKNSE
- TEST: PathHunter β-arrestin assay
- Format: cell-based
- CONDITION_CONTEXT: antagonist mode vs EC80 of control agonist, 10-point curve
MEASURED_QUANTITY: pIC50
Expect pIC50 as a plain number equal to -log10 of the molar concentration.

Fill in: pIC50 of `COC(=O)[C@@H](NC(=O)c1nn(Cc2ccc(F)cc2)c2ccccc12)C(C)C` is ___
4.84
